# ASSAY_EXPLANATION: mouse peroral pharmacokinetic analysis
# Type: in vivo
# CONDITION_INFO: mouse PO 5 mg/kg
# if measured Vd < 20 L/kg: 1  # else: 0

MOLECULE	DISCRETE_LABEL
CCOc1ccc(-c2nnc([C@H]3C[C@H](NC(=O)c4ccnc5cc(F)cnc45)C3)n2-c2ccncc2)nc1 [Compound 18b]	0
CCOc1ccc(-c2nnc([C@H]3C[C@H](NC(=O)c4ccnc5cccnc45)C3)n2-c2ccc(C)s2)nc1 [Compound 22a]	1
Cc1cccc(-c2nnc([C@H]3C[C@H](NC(=O)c4cccc5nccnc45)C3)n2-c2ccccc2F)n1 [Compound 31a]	1
CCOc1ccc(-c2nnc([C@H]3C[C@H](NC(=O)c4cccc5nccnc45)C3)n2-c2ccccc2F)nc1	1

Query molecule follows.
Quick check: does Cc1cccc(-c2nnc([C@H]3C[C@H](NC(=O)c4cc(F)cc5nccnc45)C3)n2-c2ccccc2F)n1 [Compound 31b] have Vd under 20 L/kg?
1
